- measuredOn: RBM38
- experimentNotes: pooled miR-30 sensor sort-seq; sequence = guide strand; also: reference of the scale not given here
- experimentalSetup: shRNA
reportedMetric: sensor-assay potency score (higher = more potent)

- TTAACTTCTTGCTTTCAGGTTT: 0.295
- ACGAAGATCTTGGTGAACGTGG: -1.06
- AAACAGTCCATTAACTTCTTGC: 0.128
- TAGCTGTAGCCCACGAAGCTGG: -1.08
- AAGATCTTGGTGAACGTGGTGT: 0.0778
- TTCGGGTCTTTGCAAGCCCTCT: -1.39

----------
- measuredOn: TRAPPC2
- experimentNotes: pooled miR-30 sensor sort-seq; sequence = guide strand
- experimentalSetup: shRNA
reportedMetric: sensor-assay potency score (higher = more potent)

- TTATTCCATCTTCTTGTCTTAT: -1.23
- TTGATCGAATAGGAGAATTGGG: -0.578
- TTTCTGTCAAATGCACTTGATC: -1.44
- TCGTTGAACTTGTCCACAGTTT: -0.427
- TATATAAATCATAAACATCAGT: -0.905
- ATGAGCTATGAACTGGTTCAGA: -1.51
- ATGCACTTGATCGAATAGGAGA: -1.42

----------
- measuredOn: OGDHL
- experimentNotes: pooled miR-30 sensor sort-seq; sequence = guide strand
- experimentalSetup: shRNA
Given measured sensor-assay potency score (higher = more potent), output Satisfied if it is greater than or equal to -0.8 and Not satisfied if not.

* TAAGCCTCCTCACAGATCCGGT | Not satisfied
* TACTTTGGTACACATGAGCTGT | Satisfied
* TTCATAGGCACACACGTCCTGC | Not satisfied
* TTGCTCATCTGCAGGAACCTTT | Satisfied
* TTCAGCACAGGCACCTGTCTGT | Satisfied
* TGGAGAACTGCATCACACCAGG | Not satisfied

----------
- measuredOn: TKT
- experimentNotes: pooled miR-30 sensor sort-seq; sequence = guide strand
- experimentalSetup: shRNA
Given measured sensor-assay potency score (higher = more potent), output 1 if it is greater than or equal to -0.8 and 0 if not.

• TTGTCCCCAACTTTGTAGCTGG = 1
• TCCTTTTTGAAGATCTCCGAGA = 0
• TTGCTCTTCAGGACCACCTTGG = 1
• TTGAAGATCTCCGAGAAGGTGG = 1
• TAAAAGACAGTTGATGTGGGGA = 1
• TTTTTGCTCTGGATCTGGCTGT = 1
• TAGATGATGGCATTTTCTGGGC = 0
• TTGTCCAGCTTATAGATGCTGG = 0
• TTGTCGAAGTATTTGCCGGTGT = 1

----------
- measuredOn: ENTPD8
- experimentNotes: pooled miR-30 sensor sort-seq; sequence = guide strand
- experimentalSetup: shRNA
Given measured sensor-assay potency score (higher = more potent), output Satisfied if it is greater than or equal to -0.9 and Not satisfied if not.

* TAGCCGCTGAGGTAGCACGGGT | Satisfied
* TAGCTGTGAGTGTAGACGCTGT | Satisfied
* TAGTTGACAGTGATCCAACCAA | Satisfied
* TAGTCGGAGCCGTAGAGGCGAA | Not satisfied
* TCAACTGTGAGGTTCTGGGGGA | Satisfied
* TCAAACACGATCCCAAACTTGA | Not satisfied
* TCAGCATCTGGTCCCGTCCAAA | Not satisfied
* TTGACCAGCGTCCCCAAGCCGT | Not satisfied
